# Tested Target: Ssa1-WT (yeast, UniProt P10591 1-642)
# Sequence (P10591 whole entry): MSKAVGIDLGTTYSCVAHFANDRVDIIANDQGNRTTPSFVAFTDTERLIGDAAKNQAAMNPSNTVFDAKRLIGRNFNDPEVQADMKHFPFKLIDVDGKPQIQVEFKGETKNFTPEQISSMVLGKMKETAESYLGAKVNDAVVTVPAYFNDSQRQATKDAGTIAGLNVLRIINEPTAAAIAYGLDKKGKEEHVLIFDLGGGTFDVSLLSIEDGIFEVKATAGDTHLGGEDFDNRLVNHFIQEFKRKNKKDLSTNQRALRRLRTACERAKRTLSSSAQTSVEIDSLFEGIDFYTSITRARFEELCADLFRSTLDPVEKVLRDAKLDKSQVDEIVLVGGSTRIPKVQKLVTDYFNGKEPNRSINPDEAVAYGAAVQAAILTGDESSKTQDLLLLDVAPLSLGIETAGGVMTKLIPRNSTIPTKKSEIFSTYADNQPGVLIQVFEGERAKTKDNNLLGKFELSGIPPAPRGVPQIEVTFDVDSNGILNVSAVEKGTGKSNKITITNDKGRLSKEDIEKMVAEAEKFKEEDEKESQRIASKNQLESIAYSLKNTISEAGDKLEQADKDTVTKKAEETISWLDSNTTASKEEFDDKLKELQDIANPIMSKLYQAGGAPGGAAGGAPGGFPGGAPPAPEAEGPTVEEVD
# Method Summary: ELISA

| Binder | binding result |
| --- | --- |
| Sis1-[change] (natural protein) MVKETKLYDLLGVSPSANEQELKKGYRKAALKYHPDKPTGDTEKFKEISEAFKILNDPQKREIYDQYGLEAARSGGPSFGPGGPGGAGGAGGFPGGAGGFSGGHAFSNEDAFNIFSQFFGGSSPFGGADDSGFSFSSYPSGGGAGMGGMPGGMGGMHGGMGGMPGGFRSASSSPTYPEEETVQVNLPVSLEDLFVGKKKSFKIGRKGPHGASEKTQIDIQLKPGWKAGTKITYKNQGDYNPQTGRRKTLQFVIQEKSHPNFKRDGDDLIYTLPLSFKESLLGFSKTIQTIDGRTLPLSRVQPVQPSQTSTYPGQGMPTPKNPSQRGNLIVKYKVDYPISLNDAQKRAIDENF | binds |
| Sis1-WT (natural protein) MVKETKLYDLLGVSPSANEQELKKGYRKAALKYHPDKPTGDTEKFKEISEAFEILNDPQKREIYDQYGLEAARSGGPSFGPGGPGGAGGAGGFPGGAGGFSGGHAFSNEDAFNIFSQFFGGSSPFGGADDSGFSFSSYPSGGGAGMGGMPGGMGGMHGGMGGMPGGFRSASSSPTYPEEETVQVNLPVSLEDLFVGKKKSFKIGRKGPHGASEKTQIDIQLKPGWKAGTKITYKNQGDYNPQTGRRKTLQFVIQEKSHPNFKRDGDDLIYTLPLSFKESLLGFSKTIQTIDGRTLPLSRVQPVQPSQTSTYPGQGMPTPKNPSQRGNLIVKYKVDYPISLNDAQKRAIDENF | binds |
